- experiment: clinical
- condition.parameters: female, human, plasma, po, 150 mg
experimental.readout: AUC(0-t) (µM·h)
Answers are plain numbers, in µM·h.

For record CS(=O)(=O)c1ccc(C(=O)Nc2ccc(Cl)c(-c3ccccn3)c2)c(Cl)c1 [Vismodegib] the listed AUC(0-t) is 140

###

- experiment: clinical
- condition.parameters: female, human, plasma, po, 150 mg
experimental.readout: Tmax (h)
Numbers only, in h.

compound CS(=O)(=O)c1ccc(C(=O)Nc2ccc(Cl)c(-c3ccccn3)c2)c(Cl)c1 , Tmax observed: 6

###

- experiment: clinical
- condition.parameters: female, human, plasma, po, 150 mg
experimental.readout: Cmax
Reply with the number and its unit after it.

Cmax for CS(=O)(=O)c1ccc(C(=O)Nc2ccc(Cl)c(-c3ccccn3)c2)c(Cl)c1 [Vismodegib] is 7 µM
